- TGT: UniProt:Q9NSY1
- Sequence (Q9NSY1 whole entry): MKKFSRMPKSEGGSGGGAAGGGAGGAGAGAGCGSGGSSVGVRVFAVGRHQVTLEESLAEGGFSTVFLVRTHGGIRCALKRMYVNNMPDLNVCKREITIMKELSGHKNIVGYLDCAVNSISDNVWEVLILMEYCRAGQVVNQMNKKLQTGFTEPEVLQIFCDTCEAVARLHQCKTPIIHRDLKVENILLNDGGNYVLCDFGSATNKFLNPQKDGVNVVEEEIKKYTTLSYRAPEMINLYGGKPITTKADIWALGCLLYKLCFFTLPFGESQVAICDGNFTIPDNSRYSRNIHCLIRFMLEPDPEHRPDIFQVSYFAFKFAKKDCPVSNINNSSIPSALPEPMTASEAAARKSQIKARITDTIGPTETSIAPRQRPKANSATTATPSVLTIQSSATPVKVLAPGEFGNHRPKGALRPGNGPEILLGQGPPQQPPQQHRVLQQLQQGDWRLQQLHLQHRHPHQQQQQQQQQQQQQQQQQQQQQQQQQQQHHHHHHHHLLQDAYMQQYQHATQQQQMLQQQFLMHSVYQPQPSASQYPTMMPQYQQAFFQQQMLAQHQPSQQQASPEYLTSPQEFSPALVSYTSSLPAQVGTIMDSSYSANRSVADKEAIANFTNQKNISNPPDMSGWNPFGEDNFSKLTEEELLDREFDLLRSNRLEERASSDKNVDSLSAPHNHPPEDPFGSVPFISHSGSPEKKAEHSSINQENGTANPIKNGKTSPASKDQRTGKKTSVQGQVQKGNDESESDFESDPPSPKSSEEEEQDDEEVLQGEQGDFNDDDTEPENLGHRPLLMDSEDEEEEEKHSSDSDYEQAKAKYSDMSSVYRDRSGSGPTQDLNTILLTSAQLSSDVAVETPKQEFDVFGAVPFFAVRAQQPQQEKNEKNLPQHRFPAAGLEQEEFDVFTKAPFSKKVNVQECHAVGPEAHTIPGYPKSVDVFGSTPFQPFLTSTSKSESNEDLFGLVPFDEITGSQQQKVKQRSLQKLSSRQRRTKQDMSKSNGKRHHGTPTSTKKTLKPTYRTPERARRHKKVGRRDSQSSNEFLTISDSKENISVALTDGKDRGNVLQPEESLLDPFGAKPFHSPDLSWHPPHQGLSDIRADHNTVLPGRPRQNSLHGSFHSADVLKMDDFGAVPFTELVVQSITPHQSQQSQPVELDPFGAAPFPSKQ
Activity calls are given as the source filed them.
Classes used: Yes for active, No for inactive

{"SMILES_REPRESENTATION": "CNC(=O)c1ccc(-c2cnc3ncc(Cc4ccc5ncccc5c4)n3n2)cc1F", "CATEGORY": "No"}
{"SMILES_REPRESENTATION": "O=C1NC(=O)/C(=C/c2ccc3nccc(-c4ccncc4)c3c2)S1", "CATEGORY": "Yes"}
{"SMILES_REPRESENTATION": "Cc1ccc(NC(=O)c2ccc(CN3CC[C@H](N(C)C)C3)c(C(F)(F)F)c2)cc1Nc1nccc(-c2cncnc2)n1", "CATEGORY": "No"}
{"SMILES_REPRESENTATION": "O=C(O)[C@]1(Cc2cccc(Nc3nccs3)n2)CC[C@@H](Oc2cccc(Cl)c2F)CC1", "CATEGORY": "No"}
{"SMILES_REPRESENTATION": "CC(=O)Nc1cccc(-n2c(=O)n(C3CC3)c(=O)c3c(Nc4ccc(I)cc4F)n(C)c(=O)c(C)c32)c1", "CATEGORY": "No"}
{"SMILES_REPRESENTATION": "COc1cc2nccc(Oc3ccc(NC(=O)NC4CC4)c(Cl)c3)c2cc1C(N)=O", "CATEGORY": "No"}
{"SMILES_REPRESENTATION": "Cc1c(F)cc(C(=O)NC2CC2)cc1-c1ccc(C(=O)NCC(C)(C)C)cn1", "CATEGORY": "No"}
{"SMILES_REPRESENTATION": "CCn1c(=O)c(-c2cc[nH]n2)cc2c(C)nc(N)nc21", "CATEGORY": "No"}
{"SMILES_REPRESENTATION": "COc1ccc(-c2ccc3c(N4CCOC[C@@H]4C)nc(N4CCOC[C@@H]4C)nc3n2)cc1CO", "CATEGORY": "No"}

----------
- TGT: Serine/threonine-protein kinase 16 (Homo sapiens)
- Sequence (O75716 whole entry): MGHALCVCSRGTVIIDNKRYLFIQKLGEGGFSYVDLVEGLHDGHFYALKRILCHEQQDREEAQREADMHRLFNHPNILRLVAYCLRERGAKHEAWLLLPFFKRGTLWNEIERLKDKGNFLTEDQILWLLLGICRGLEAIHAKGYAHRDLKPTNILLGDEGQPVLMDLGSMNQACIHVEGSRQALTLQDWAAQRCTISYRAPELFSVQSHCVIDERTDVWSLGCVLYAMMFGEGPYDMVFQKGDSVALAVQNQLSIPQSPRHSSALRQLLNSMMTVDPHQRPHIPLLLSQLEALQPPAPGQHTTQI
Activity calls are given as the source filed them.
Possible outcomes: true (1) for active, false (0) for inactive

{"COMPOUND": "O=C1NC(=O)/C(=C/c2ccc3nccc(-c4ccncc4)c3c2)S1 [GSK-1059615]", "CATEGORY": "false (0)"}
{"COMPOUND": "OCCn1cc(-c2cnc3nnn(Cc4ccc5ncccc5c4)c3n2)cn1 [PF-04217903]", "CATEGORY": "false (0)"}
{"COMPOUND": "O=C(Nc1ccc(-c2ccnc(Nc3ccc(N4CCOCC4)cc3)n2)cc1)C1CCCN1 (stereo unspecified) [XL-019]", "CATEGORY": "false (0)"}
{"COMPOUND": "COC(=O)[C@@]1(O)C[C@H]2O[C@]1(C)n1c3ccccc3c3c4c(c5c6ccccc6n2c5c31)C(=O)NC4 [K-252A]", "CATEGORY": "false (0)"}
{"COMPOUND": "O=C(c1ccc(F)c(F)c1Nc1ccc(I)cc1F)N1CC(O)([C@@H]2CCCCN2)C1 [COBIMETINIB]", "CATEGORY": "false (0)"}
{"COMPOUND": "Cc1cc(Nc2cc(N3CCN(C)CC3)nc(/C=C/c3ccccc3)n2)n[nH]1 [ENMD-2076]", "CATEGORY": "true (1)"}
{"COMPOUND": "CC[C@H](Nc1ncnc2[nH]cnc12)c1nc2cccc(F)c2c(=O)n1-c1ccccc1 [IDELALISIB]", "CATEGORY": "false (0)"}
{"COMPOUND": "CCn1c(=O)c(-c2cc[nH]n2)cc2c(C)nc(N)nc21 [VOXTALISIB]", "CATEGORY": "false (0)"}
{"COMPOUND": "CNC(=O)c1ccc(-c2cnc3ncc(Cc4ccc5ncccc5c4)n3n2)cc1F [CAPMATINIB]", "CATEGORY": "false (0)"}
{"COMPOUND": "O=C(Nc1cccc(Cl)c1)Nc1ncc(CCNc2ncnc3ccsc23)s1 [SNS-314]", "CATEGORY": "false (0)"}
{"COMPOUND": "Cc1cc([C@@H](C)Nc2ccccc2C(=O)O)c2nc(N3CCOCC3)cc(=O)n2c1 [AZD-6482]", "CATEGORY": "false (0)"}

Entry source: ChEMBL document CHEMBL3991601
